biological target: cIAP1-BIR3 (Homo sapiens (Human), UniProt Q13490); test: BIR binding assay (FRET competition), cIAP1 BIR3
Sequence (Q13490 253-363): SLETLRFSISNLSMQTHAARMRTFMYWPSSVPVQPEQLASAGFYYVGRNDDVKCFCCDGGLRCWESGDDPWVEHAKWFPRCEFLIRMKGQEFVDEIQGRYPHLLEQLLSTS

compound	tested system	IC50
C[C@@H]1CN(CC(=O)N2CC(C)(C)c3[nH]c(=O)c(Cc4ccc(F)cc4)cc32)[C@@H](CN2CCO[C@H](C(=O)NCC3CCN(C(=O)[C@@H]4CN(C[C@H]5CN[C@H](C)CN5CC(=O)N5CC(C)(C)c6[nH]c(=O)c(Cc7ccc(F)cc7)cc65)CCO4)CC3)C2)CN1 [Compound 133]	cIAP1-BIR3 (Homo sapiens (Human), UniProt Q13490)	31.6 to 501 nM
C[C@@H]1CN(CC(=O)N2CC(C)(C)c3ncc(Cc4ccc(F)cc4)cc32)[C@@H](CN2CCN(S(=O)(=O)c3cccc(S(=O)(=O)N4CCN(C[C@H]5CN[C@H](C)CN5CC(=O)N5CC(C)(C)c6ncc(Cc7ccc(F)cc7)cc65)[C@H](C)C4)c3)C[C@H]2C)CN1 [Example 36]	cIAP1-BIR3 (Homo sapiens (Human), UniProt Q13490)	15.8 to 31.6 nM
C[C@@H]1CN(CC(=O)N2CC(C)(C)c3[nH]c(=O)c(Cc4ccc(F)cc4)cc32)[C@@H](CN2CCO[C@H](COCCOCCOC[C@@H]3CN(C[C@H]4CN[C@H](C)CN4CC(=O)N4CC(C)(C)c5[nH]c(=O)c(Cc6ccc(F)cc6)cc54)CCO3)C2)CN1 [Example 83]	cIAP1-BIR3 (Homo sapiens (Human), UniProt Q13490)	15.8 to 31.6 nM
C[C@@H]1CN(CC(=O)N2CC(C)(C)c3[nH]c(=O)c(Cc4ccc(F)cc4)cc32)[C@@H](CN2CCO[C@H](COc3ccccc3OC[C@@H]3CN(C[C@H]4CN[C@H](C)CN4CC(=O)N4CC(C)(C)c5[nH]c(=O)c(Cc6ccc(F)cc6)cc54)CCO3)C2)CN1 [Example 71]	cIAP1-BIR3 (Homo sapiens (Human), UniProt Q13490)	7.94 to 15.8 nM
